Please provide measured level, % of control for the entries that follow.
Test system: Human gammaherpesvirus 4
assay-info: Inhibition of TPA-induced EBV-EA activation in Raji cells at 500 mol ratio/TPA relative to control; values are per cent of control
Param answer (str): number followed by unit.

**Q:** Endpoint output: level, % of control of CC(C)=CC[C@@H](O)[C@@H](C)[C@H]1CC[C@@]2(C)C3=C(CC[C@]12C)[C@@]1(C)CC[C@H](O)C(C)(C)[C@@H]1CC3 . Value?
**A:** 37.6%

**Q:** Lookup C[C@@H]([C@H]1CC[C@@]2(C)C3=C(CC[C@]12C)[C@@]1(C)CC[C@H](O)C(C)(C)[C@@H]1CC3)[C@H]1C[C@H](O)C(C)(C)O1 [INONOTSUOXIDE A]
**A:** 42%

**Q:** Lookup CC(C)=CCC[C@@H](C(=O)O)[C@H]1CC[C@@]2(C)C3=C(CC[C@]12C)[C@@]1(C)CC[C@H](O)C(C)(C)[C@@H]1CC3
**A:** 45%

**Q:** Lookup CC(=O)O[C@H]1CC[C@]2(C)C3=C(CC[C@H]2C1(C)C)[C@]1(C)CC[C@H]([C@@H](CCC=C(C)C)C(=O)O)[C@@]1(C)CC3
**A:** 47.8%

**Q:** Lookup CC(C)=CCC[C@@H](C)[C@H]1CC[C@@]2(C)C3=C(CC[C@]12C)[C@@]1(C)CC[C@H](O)C(C)(C)[C@@H]1CC3
**A:** 44.7%
